This section presents log10(IC50) values reported for Histone-lysine N-methyltransferase EHMT1 (Homo sapiens, UniProt Q9H9B1) in the literature.
Annotation: log10 of IC50, nM basis.

{"compound": "CNc1cc(C)nc(Nc2ccc(C)c(C3=CCNCCC3)c2)n1", "log10(IC50)": 2.04}
{"compound": "C=CC(=O)Nc1cccc(-c2nc(NC3CCN(C)CC3)c3cc(OC)c(OC)cc3n2)c1", "log10(IC50)": 2.66}
{"compound": "COc1cc2nc(NCCCCCC(=O)NO)nc(NC3CCN(C(C)C)CC3)c2cc1OC", "log10(IC50)": 1.99}
{"compound": "CNc1cc(C)nc(Nc2ccc(OC(F)F)c(C3=CCNCCC3)c2)n1", "log10(IC50)": 1.17}
{"compound": "CNc1cc(C)nc(Nc2ccc(OC)c(C3=CCN(C)C3)c2)n1", "log10(IC50)": 3.44}

Check Histone-lysine N-methyltransferase EHMT1 (Homo sapiens, UniProt Q9H9B1) data and give log10(IC50) for CNc1cc(C)nc(Nc2ccc(C#N)c(C3=CCNCCC3)c2)n1 .
1.64

----------
Literature compilation of log10(IC50) measurements on Histone-lysine N-methyltransferase EHMT1 (Homo sapiens, UniProt Q9H9B1).
- test_target: Histone-lysine N-methyltransferase EHMT1 (Homo sapiens, UniProt Q9H9B1)
- Sequence (Q9H9B1 whole entry): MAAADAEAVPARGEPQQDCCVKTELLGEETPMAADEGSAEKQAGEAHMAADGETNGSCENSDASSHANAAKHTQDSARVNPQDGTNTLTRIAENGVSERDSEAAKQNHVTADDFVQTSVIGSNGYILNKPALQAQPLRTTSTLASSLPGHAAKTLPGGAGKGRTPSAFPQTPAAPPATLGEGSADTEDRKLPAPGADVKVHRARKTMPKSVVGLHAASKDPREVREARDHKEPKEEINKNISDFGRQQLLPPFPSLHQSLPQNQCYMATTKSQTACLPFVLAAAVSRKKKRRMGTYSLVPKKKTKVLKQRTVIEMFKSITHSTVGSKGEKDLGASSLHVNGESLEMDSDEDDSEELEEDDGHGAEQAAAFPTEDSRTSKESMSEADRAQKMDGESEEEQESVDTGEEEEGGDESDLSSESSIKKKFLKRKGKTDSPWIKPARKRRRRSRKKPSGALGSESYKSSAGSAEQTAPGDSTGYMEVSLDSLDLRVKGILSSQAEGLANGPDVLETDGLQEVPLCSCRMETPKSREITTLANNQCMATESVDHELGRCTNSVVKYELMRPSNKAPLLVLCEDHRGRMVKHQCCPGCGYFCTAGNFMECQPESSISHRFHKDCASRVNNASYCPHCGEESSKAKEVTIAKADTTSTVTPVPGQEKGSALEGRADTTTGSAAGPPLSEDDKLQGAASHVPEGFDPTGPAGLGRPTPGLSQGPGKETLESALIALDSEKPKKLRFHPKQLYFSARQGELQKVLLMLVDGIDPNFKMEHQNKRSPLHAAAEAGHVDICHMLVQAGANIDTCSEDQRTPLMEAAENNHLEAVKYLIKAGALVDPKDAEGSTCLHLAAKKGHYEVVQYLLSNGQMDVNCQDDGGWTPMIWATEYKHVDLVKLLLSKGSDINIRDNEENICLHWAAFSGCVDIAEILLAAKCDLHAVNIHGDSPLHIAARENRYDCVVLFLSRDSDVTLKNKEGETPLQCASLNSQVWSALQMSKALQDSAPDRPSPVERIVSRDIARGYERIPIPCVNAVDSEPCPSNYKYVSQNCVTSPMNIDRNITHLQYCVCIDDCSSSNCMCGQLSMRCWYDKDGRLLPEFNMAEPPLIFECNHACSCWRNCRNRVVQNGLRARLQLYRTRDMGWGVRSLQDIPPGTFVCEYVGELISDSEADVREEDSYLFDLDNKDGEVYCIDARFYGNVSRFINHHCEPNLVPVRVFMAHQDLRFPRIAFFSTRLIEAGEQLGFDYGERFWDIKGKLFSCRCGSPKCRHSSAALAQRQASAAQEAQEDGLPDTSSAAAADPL
// do not treat as linear: log10 of IC50, unit µM

Reference set, count: 3
{"compound": "COc1cc2c(cc1OCCCN1CCCC1)N=C(N)C21CCC1", "test_target": "Histone-lysine N-methyltransferase EHMT1 (Homo sapiens, UniProt Q9H9B1)", "log10(IC50)": -1.42}
{"compound": "COc1cc2nc(N3CCN(CCCCCC(=O)NO)CC3)nc(NC3CCN(C(C)C)CC3)c2cc1OC", "test_target": "Histone-lysine N-methyltransferase EHMT1 (Homo sapiens, UniProt Q9H9B1)", "log10(IC50)": -2.80}
{"compound": "Nc1ncnc2c1ncn2[C@@H]1O[C@H](CSCC[C@H](N)C(=O)O)[C@@H](O)[C@H]1O", "test_target": "Histone-lysine N-methyltransferase EHMT1 (Homo sapiens, UniProt Q9H9B1)", "log10(IC50)": -0.64}

Name the recorded log10(IC50) of the item CNc1cc(C)nc(Nc2ccc(OC)c(OCCCN3CCCC3)c2)n1 in your answer.
-0.73

Item CNc1cc(C)nc(Nc2ccc(OC)c(C3=CCCN(C)C3)c2)n1 : provide log10(IC50)
-0.06

Give the reported log10(IC50) for this compound. CCCCC[C@H]1O[C@@H](n2cnc3c(N)ncnc32)[C@H](O)[C@@H]1O
1.94

Write down log10(IC50) measured for item COc1ccc(CC(N)C[C@H]2O[C@@H](n3cnc4c(N)ncnc43)[C@H](O)[C@@H]2O)cc1OC (stereo not given in full)
2.17

Using the record for CNc1cc(C)nc(Nc2ccc(OC)c(C3=CCN(C4CCC4)CCC3)c2)n1 , state its measured log10(IC50).
0.03

Given CCN1CC=C(c2cc(Nc3nc(C)cc(NC)n3)ccc2OC)CCC1 , respond with its log10(IC50).
-1.36

Note log10(IC50) for the compound shown: CNc1cc(C)nc(Nc2ccc(Cl)c(C3=CCNCCC3)c2)n1
-1.57
